- target_system: UniProt:P11511
- Sequence (P11511 whole entry): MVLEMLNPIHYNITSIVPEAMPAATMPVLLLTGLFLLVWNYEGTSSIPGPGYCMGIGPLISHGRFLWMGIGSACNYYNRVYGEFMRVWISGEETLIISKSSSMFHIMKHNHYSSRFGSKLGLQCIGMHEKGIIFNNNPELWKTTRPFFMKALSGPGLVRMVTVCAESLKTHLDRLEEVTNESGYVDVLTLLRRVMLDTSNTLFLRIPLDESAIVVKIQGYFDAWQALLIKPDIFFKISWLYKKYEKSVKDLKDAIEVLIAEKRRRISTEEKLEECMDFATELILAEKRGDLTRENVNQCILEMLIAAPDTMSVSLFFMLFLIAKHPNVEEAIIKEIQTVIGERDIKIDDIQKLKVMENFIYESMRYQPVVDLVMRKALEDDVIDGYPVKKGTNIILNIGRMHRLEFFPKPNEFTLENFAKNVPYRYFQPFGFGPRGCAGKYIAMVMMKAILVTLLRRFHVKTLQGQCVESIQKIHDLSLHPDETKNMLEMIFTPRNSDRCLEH
measurement_type: IC50

input: Give the measured IC50 of COCOc1ccc(C(=O)/C=C/c2ccc(OCOC)c(CC=C(C)C)c2)c(O)c1 .
output: > 242 µM

input: Looking for the measured IC50 of COc1ccc(C(=O)/C=C/c2ccc(OCC=C(C)C)cc2)c(O)c1 , can you help?
output: > 271 µM

Data provenance: ChEMBL document CHEMBL1143702
